# Experimental System: UniProt:A3EZJ3
# Assay Details: Dissociation constant for HCV NS3 protease substrate binding site
# Set-up: species or system Hepacivirus hominis
Readout Label: Kd

| Compound | Experimental System | Result |
| --- | --- | --- |
| Oc1c(I)cc(CCc2ccncc2)cc1I | UniProt:A3EZJ3 | Not Active |
| COc1ccc(C(=O)c2cc(OC)ccc2C(=O)O)cc1 | UniProt:A3EZJ3 | Insoluble |
| CC(C)(C)OC(=O)N[C@@H](Cc1cc(I)c(O)c(I)c1)C(=O)O | UniProt:A3EZJ3 | Active |
| CC(=O)N[C@H](Cc1cc(I)c(O)c(I)c1)C(=O)O | UniProt:A3EZJ3 | Active |
| CCOC(=O)C(Cc1cc(I)c(O)c(I)c1)c1ccccc1 (configuration not stated) | UniProt:A3EZJ3 | Not Active |
| O=C(c1ccc(Cl)cc1)c1cccc(Cl)c1C(=O)O | UniProt:A3EZJ3 | Insoluble |
| CC(C)(C)OC(=O)N[C@H](Cc1cc(I)c(O)c(I)c1)C(=O)O | UniProt:A3EZJ3 | Active |

* * *

Reported values of Ki for individual entries
# Experimental System: UniProt:A3EZJ3
# Assay Details: Inhibition constant for HCV NS3 protease substrate binding site

| Sample Smiles | Experimental System | Ki, µM |
| --- | --- | --- |
| O=C(N[C@@H](Cc1cc(I)c(O)c(I)c1)C(=O)O)OCCCOc1ccc(C(=O)c2ccccc2C(=O)O)cc1 | UniProt:A3EZJ3 | 0.8 |
| Cc1ccc(S(=O)(=O)NNC(=S)c2ccccc2)cc1 | UniProt:A3EZJ3 | 650 |
| CC(C)(C)OC(=O)c1ccccc1C(=O)c1ccc(OCCCOC(=O)N[C@@H](Cc2cc(I)c(O)c(I)c2)C(=O)OC(C)(C)C)cc1 | UniProt:A3EZJ3 | 1 |
| O=C(O)c1cc(I)c(O)c(I)c1 | UniProt:A3EZJ3 | 600 |
| CC(C)(C)OC(=O)N[C@@H](Cc1cc(I)c(O)c(I)c1)C(=O)O | UniProt:A3EZJ3 | 310 |
| CC(C)(C)OC(=O)N[C@H](Cc1cc(I)c(O)c(I)c1)C(=O)O | UniProt:A3EZJ3 | 260 |

* * *

Reported values of Kd for individual entries
# Experimental System: NS3 (Hepatitis C virus)
# Sequence (A3EZJ3 whole entry): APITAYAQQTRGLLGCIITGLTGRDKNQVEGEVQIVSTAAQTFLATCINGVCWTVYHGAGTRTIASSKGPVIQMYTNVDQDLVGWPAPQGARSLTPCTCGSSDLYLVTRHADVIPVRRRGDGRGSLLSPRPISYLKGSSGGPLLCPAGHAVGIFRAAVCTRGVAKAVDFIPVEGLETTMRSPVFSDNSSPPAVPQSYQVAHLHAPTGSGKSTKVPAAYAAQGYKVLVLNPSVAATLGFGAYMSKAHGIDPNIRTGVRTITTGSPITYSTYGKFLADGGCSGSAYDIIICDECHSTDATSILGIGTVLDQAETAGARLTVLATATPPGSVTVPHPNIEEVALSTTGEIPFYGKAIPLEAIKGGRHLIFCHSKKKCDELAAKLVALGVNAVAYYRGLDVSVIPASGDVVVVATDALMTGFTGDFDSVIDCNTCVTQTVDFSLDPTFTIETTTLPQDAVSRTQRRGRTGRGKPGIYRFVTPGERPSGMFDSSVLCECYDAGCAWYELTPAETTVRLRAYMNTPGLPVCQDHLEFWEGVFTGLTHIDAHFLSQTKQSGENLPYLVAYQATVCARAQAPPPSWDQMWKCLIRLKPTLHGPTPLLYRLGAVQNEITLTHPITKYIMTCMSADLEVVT
# Assay Details: Dissociation constant for HCV NS3 protease substrate binding site
# Parameters: species or system Hepacivirus hominis
# Recorded Conditions: read-out: Kd
Readout Label: Kd

| Molecule | Experimental System | Result |
| --- | --- | --- |
| COC(=O)[C@H](N)Cc1cc(I)c(O)c(I)c1 | NS3 (Hepatitis C virus) | > 2.5 mM |
| COc1ccc(C(=O)c2ccccc2C(=O)O)cc1 | NS3 (Hepatitis C virus) | 1 mM |
| Nc1ccc(C(=O)Nc2ccc(Cl)c(N)c2)cc1 | NS3 (Hepatitis C virus) | 20 mM |
| O=C(O)c1cc(Br)ccc1C(=O)c1ccc(O)cc1 | NS3 (Hepatitis C virus) | > 0.6 mM |
| CC1(C(=O)Nc2ccc(O)cc2)CC1 | NS3 (Hepatitis C virus) | 8.4 mM |
| COc1ccc(NC(=O)C2(C)CC2)cc1 | NS3 (Hepatitis C virus) | > 60 mM |
| O=C(O)c1cc2ccc(Cl)cc2[nH]1 | NS3 (Hepatitis C virus) | 0.4 mM |
| O=C(O)c1cc2cccc(Br)c2[nH]1 | NS3 (Hepatitis C virus) | 1 mM |
| Nc1ccc(C(=O)O)cc1 | NS3 (Hepatitis C virus) | > 40 mM |
| COc1c(I)cc(CC(C(=O)O)c2ccccc2)cc1I (stereo not given) | NS3 (Hepatitis C virus) | > 1.6 mM |
| COc1ccc(CC(C(=O)O)c2ccccc2)cc1 (stereo not given) | NS3 (Hepatitis C virus) | > 8 mM |
| O=C(O)c1cc(I)c(O)c(I)c1 | NS3 (Hepatitis C virus) | 0.42 mM |
| COc1ccc(NC(=O)C(C)(C)C)cc1 | NS3 (Hepatitis C virus) | > 0.1 mM |
| O=C(O)c1cc2cc(Br)ccc2[nH]1 | NS3 (Hepatitis C virus) | 0.2 mM |
| COc1ccc(NC(=O)C(C)C)cc1 | NS3 (Hepatitis C virus) | 70 mM |
| O=C(O)c1ccccc1C(=O)c1ccc(Cl)cc1 | NS3 (Hepatitis C virus) | ~0.003 mM |
| COc1ccc2[nH]c(C(=O)O)cc2c1 | NS3 (Hepatitis C virus) | 4 mM |
| O=C(O)c1ccccc1Cc1ccc(O)cc1 | NS3 (Hepatitis C virus) | > 7 mM |
| Nc1ccc(CC(C(=O)O)c2ccccc2)cc1 (stereo not given) | NS3 (Hepatitis C virus) | > 8 mM |
| O=C(O)C(Cc1cc(I)c(O)c(I)c1)c1ccccc1 (stereo not given) | NS3 (Hepatitis C virus) | 0.11 mM |
| O=C(O)Cc1ccccc1C(=O)c1ccc(Cl)cc1 | NS3 (Hepatitis C virus) | 4 mM |
| CCC(=O)Nc1ccc(O)cc1 | NS3 (Hepatitis C virus) | 34 mM |
| O=C(O)c1ccccc1C(=O)c1ccc(C(F)(F)F)cc1 | NS3 (Hepatitis C virus) | 4 mM |
| COc1ccc(C(=O)C2CC2)cc1 | NS3 (Hepatitis C virus) | > 20 mM |
| O=C(O)c1cc2cc(F)ccc2[nH]1 | NS3 (Hepatitis C virus) | 0.0029 mM |
| Nc1ccc(C(=O)c2cccnc2N)cc1 | NS3 (Hepatitis C virus) | 70 mM |
| Cc1ccc2[nH]c(C(=O)O)cc2c1 | NS3 (Hepatitis C virus) | 1.2 mM |
| O=C(O)C(F)(F)C(F)(F)C(=O)O | NS3 (Hepatitis C virus) | ~0.0052 mM |
| O=C(CCCl)Nc1ccc(O)cc1 | NS3 (Hepatitis C virus) | 55 mM |
| CC1(C(=O)Nc2ccc(O)c(C(F)(F)F)c2)CC1 | NS3 (Hepatitis C virus) | 0.69 mM |
| Cc1ccc(N)cc1NC(=O)c1ccc(N)cc1 | NS3 (Hepatitis C virus) | 100 mM |
| c1ccc2c(c1)NC1SCCCN21 (stereo not given) | NS3 (Hepatitis C virus) | ~0.0019 mM |
| O=C(O)c1cc2cc(Cl)ccc2[nH]1 | NS3 (Hepatitis C virus) | 0.3 mM |
| O=C(O)C(Cc1ccc(O)cc1)c1ccccc1 (stereo not given) | NS3 (Hepatitis C virus) | > 8 mM |
| Cn1c(C(=O)O)cc2ccccc21 | NS3 (Hepatitis C virus) | 8.1 mM |
| O=C(/C=N/O)Nc1ccc(C(=O)O)cc1 | NS3 (Hepatitis C virus) | > 0.25 mM |
| CC(C)C(=O)Nc1ccc(O)cc1 | NS3 (Hepatitis C virus) | 17 mM |
| O=C(O)C(Cc1cc(Br)c(O)c(Br)c1)c1ccccc1 (stereo not given) | NS3 (Hepatitis C virus) | > 8 mM |
| O=C(O)c1ccccc1Cc1ccc(Cl)cc1 | NS3 (Hepatitis C virus) | > 7 mM |
| O=C(O)c1ccccc1C(=O)c1ccc(O)cc1 | NS3 (Hepatitis C virus) | 1.6 mM |
| Nc1ccc(C(=O)c2ccc(N)cc2)cc1 | NS3 (Hepatitis C virus) | > 20 mM |
| O=C(O)c1ccccc1C(=O)c1cccc(Cl)c1 | NS3 (Hepatitis C virus) | > 10 mM |
| CC(=O)c1ccc(OCCC(=O)O)cc1 | NS3 (Hepatitis C virus) | > 20 mM |
| Cc1ccc(NC(=O)c2ccc(N)cc2)c(N)c1 | NS3 (Hepatitis C virus) | > 20 mM |
| O=C(O)COc1c(I)cc(CC(C(=O)O)c2ccccc2)cc1I (stereo not given) | NS3 (Hepatitis C virus) | > 8 mM |
| COc1ccc(NC(=O)c2ccccc2C(=O)O)cc1 | NS3 (Hepatitis C virus) | 22 mM |
| COc1ccc(N)cc1NC(=O)c1ccc(N)cc1 | NS3 (Hepatitis C virus) | > 20 mM |
| O=C(O)CCCc1cc(I)c(O)c(I)c1 | NS3 (Hepatitis C virus) | 0.14 mM |
| Cc1ccc(C(=O)c2ccccc2C(=O)O)cc1 | NS3 (Hepatitis C virus) | 1.6 mM |
| CC(=O)c1ccc(OCC(=O)O)cc1 | NS3 (Hepatitis C virus) | > 20 mM |
| O=C(O)CC(c1ccccc1)c1cc(I)c(O)c(I)c1 (stereo not given) | NS3 (Hepatitis C virus) | 0.04 mM |
| O=C(O)c1ccccc1Oc1ccc(Cl)cc1 | NS3 (Hepatitis C virus) | 7 mM |
| CON(C)C(=O)Nc1ccc(O)c(C(F)(F)F)c1 | NS3 (Hepatitis C virus) | 8 mM |
| O=C(O)c1cc2ccccc2o1 | NS3 (Hepatitis C virus) | 6.4 mM |
| COC(=O)c1cccc(C(=O)c2ccc(Cl)cc2)c1C(=O)O | NS3 (Hepatitis C virus) | > 10 mM |

The origin of these recorded values is ChEMBL document CHEMBL1148307.
